# Species on record: Rattus norvegicus
# ASSAY SUMMARY: DrugMatrix - Regimen: Daily Repeat
# Assay type: toxicity, organism-based, Sprague-Dawley
# Set-up: regimen Daily Repeat, gender Male, age 6-8 weeks
# TEST CONDITIONS: in vivo, po, 0 mg/kg, 120 h, tissue Blood, route oral GAVAGE, dose level Control, time 5 day, vehicle .5 % CMC
Recorded measurements of ABSOLUTE MONOCYTE, one per entry

Example cases with answers are listed next.
C[C@@H]1CC[C@H]2[C@@H](C)C(=O)O[C@@H]3O[C@@]4(C)CC[C@@H]1[C@]32OO4	139.83 CELLS/uL
CN1C(=O)CN=C(c2ccccc2)c2cc(Cl)ccc21	32 CELLS/uL
COc1ccc(/C=C/C(=O)Nc2ccccc2C(=O)O)cc1OC	29.17 CELLS/uL
CC(C(=O)O)c1ccc(-c2ccccc2)c(F)c1 (stereo not given)	29.17 CELLS/uL

Req: Kindly indicate its recorded ABSOLUTE MONOCYTE. Item: C[C@@H](O)[C@H]1C(=O)N2C(C(=O)O)=C(S[C@@H]3CN[C@H](C(=O)N(C)C)C3)[C@H](C)[C@H]12
Resp: 29.17 CELLS/uL

* * *

# Organism: Rattus norvegicus
# ASSAY SUMMARY: DrugMatrix - Regimen: Daily Repeat
# Type: toxicity, organism-based, Sprague-Dawley
# Set-up: regimen Daily Repeat, gender Male, age 6-8 weeks
# TEST CONDITIONS: in vivo, po, 0 mg/kg, 120 h, tissue Blood, route oral GAVAGE, dose level Control, time 5 day, vehicle 100 % WATER
RECORDED METRIC: MEAN CORPUSCULAR HEMOGLOBIN CONCENTRATION (G/DL)
Quick note: give the figure in G/DL, leave out the unit.

Reference set, count: 4
CC[C@H]1OC(=O)[C@H](C)[C@@H](O[C@H]2C[C@@](C)(OC)[C@@H](O)[C@H](C)O2)[C@H](C)[C@@H](O[C@@H]2O[C@H](C)C[C@H](N(C)C)[C@H]2O)[C@](C)(OC)C[C@@H](C)C(=O)[C@H](C)[C@@H](O)[C@]1(C)O [CLARITHROMYCIN]	39.53
CCN(CC)CC#CCOC(=O)C(O)(c1ccccc1)C1CCCCC1 (stereo not given) [OXYBUTYNIN]	39.77
O=C(O)c1cccnc1 [NIACIN]	39.88
OCCO [ETHYLENE GLYCOL]	39.57

Below: the item to evaluate.
Req: Using known records, supply MEAN CORPUSCULAR HEMOGLOBIN CONCENTRATION for CCN[C@@H](C)Cc1cccc(C(F)(F)F)c1 [DEXFENFLURAMINE]
Resp: 39.44

* * *

# Species on record: Rattus norvegicus
# ASSAY SUMMARY: DrugMatrix - Regimen: Daily Repeat
# Type: toxicity, organism-based, Sprague-Dawley
# Set-up: regimen Daily Repeat, gender Male, age 6-8 weeks
# TEST CONDITIONS: in vivo, po, 0 mg/kg, 120 h, tissue Blood, route oral GAVAGE, dose level Control, time 5 day, […]
RECORDED METRIC: ABSOLUTE EOSINOPHIL

A selection of reference data follows.
CN(CCOc1ccc(CC2SC(=O)NC2=O)cc1)c1ccccn1 (stereo not given)	37.5 CELLS/uL
CC(C)Cc1ccc(CC(=O)O)cc1	155.33 CELLS/uL
CC(C)OC(=O)C(C)(C)Oc1ccc(C(=O)c2ccc(Cl)cc2)cc1 [FENOFIBRATE]	0 CELLS/uL
COc1ncnc(NS(=O)(=O)c2ccc(N)cc2)c1OC	0 CELLS/uL

Could you now consider this next compound?
Req: For the compound CC(CCc1ccc(O)cc1)NCCc1ccc(O)c(O)c1 (stereo not given) , give its measured ABSOLUTE EOSINOPHIL value.
Resp: 56.7 cells/µL
